Examples of compounds with documented Ki follow.
# Target under test: Alpha-2D Adrenergic Receptor (Rattus norvegicus)
# Construct: aliquots of the synaptic membrane fraction, the ligand ^3H-para-aminoclonidine and test drug; from tissue; host or cells: rat brain cortex synaptic membrane fraction (male Wistar rats)
# Test details: Alpha-2D adrenergic receptor binding assay (3H-para-aminoclonidine, rat cortex synaptic membranes)
# Condition description: 3H-para-aminoclonidine, rat cortex membranes; read-out: α2D Ki
# Procedure: Alpha-2D Adrenergic Receptor Binding Assay Male, Wistar rats (150-250 g, VAF, Charles River, Kingston, N.Y.) are sacrificed by cervical dislocation and their brains removed and placed immediately in ice cold HEPES buffered sucrose. The cortex is dissected out and homogenized in 20 volumes of HEPES sucrose in a Teflon™-glass homogenizer. […] Following washing of the sheets with 10 mM HEPES buffer, the adhering radioactivity is quantified by liquid scintillation spectrometry. […]
A number alone suffices; assume pM.

[[record]]
smiles_input = "CCc1sccc1CCc1c[nH]cn1"
quantity = "Ki"
experimental_value = 1800


// below: Ki requested for another compound
Please report the measured Ki for `Cc1ccsc1CCc1c[nH]cn1`
75

###

# Target under test: Alpha-2D Adrenergic Receptor (Rattus norvegicus, UniProt P22909)
# Construct: aliquots of the synaptic membrane fraction, the ligand ^3H-para-aminoclonidine and test drug; from tissue; host or cells: rat brain cortex synaptic membrane fraction (male Wistar rats)
# Sequence (P22909 1-465): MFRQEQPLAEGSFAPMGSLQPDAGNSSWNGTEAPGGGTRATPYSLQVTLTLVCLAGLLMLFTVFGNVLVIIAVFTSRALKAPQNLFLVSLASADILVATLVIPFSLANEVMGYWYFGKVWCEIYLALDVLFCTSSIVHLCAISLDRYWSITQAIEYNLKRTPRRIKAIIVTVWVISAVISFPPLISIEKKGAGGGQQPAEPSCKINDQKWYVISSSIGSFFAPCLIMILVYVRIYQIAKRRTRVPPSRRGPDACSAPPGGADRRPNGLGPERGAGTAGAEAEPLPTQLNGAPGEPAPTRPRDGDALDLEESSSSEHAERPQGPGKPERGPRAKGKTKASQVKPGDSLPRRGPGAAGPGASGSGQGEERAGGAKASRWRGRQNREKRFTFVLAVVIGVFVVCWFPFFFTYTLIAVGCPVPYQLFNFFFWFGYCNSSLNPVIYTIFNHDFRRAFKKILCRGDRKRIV
# Test details: Alpha-2D adrenergic receptor binding assay (3H-para-aminoclonidine, rat cortex synaptic membranes)
Quantity: log10(Ki) (log10 of the value in nM)
log10 Ki, nM

[[record]]
molecule = "c1nc(CCc2ccsc2)c[nH]1 [Cp-3]"
quantity = "log10(Ki)"
experimental_value = -0.28

[[record]]
molecule = "c1csc(CCc2c[nH]cn2)c1 [Cp-2]"
quantity = "log10(Ki)"
experimental_value = -1.00

[[record]]
molecule = "CCc1csc(CCc2c[nH]cn2)c1 [Cp-8]"
quantity = "log10(Ki)"
experimental_value = -0.82


Consider the molecule CCc1ccc(/C=C/c2c[nH]cn2)s1 [Cp-17] and give its recorded log10(Ki).
1.34

Give log10(Ki) for the following molecule: Cc1ccsc1/C=C/c1c[nH]cn1 [Cp-13]
0.51

For the molecule Brc1csc(C=Cc2c[nH]cn2)c1 [Cp-16] , give its measured log10(Ki) value.
1.49

Find the measured log10(Ki) of Cc1ccc(/C=C/c2c[nH]cn2)s1 [Cp-12] and report it.
1.34

Identify measured log10(Ki) corresponding to Cc1ccc(CCc2c[nH]cn2)s1 [Cp-4]
0.04

Provide one value: measured log10(Ki) of Clc1ccc(/C=C/c2c[nH]cn2)s1 [Cp-14]
1.23

Please give measured log10(Ki) of the following entry: CCc1csc(C=Cc2c[nH]cn2)c1 [Cp-18]
1.41

Provide one value: measured log10(Ki) of CCc1ccc(CCc2c[nH]cn2)s1 [Cp-6]
0.08
